- SYSTEM UNDER TEST: DNA gyrase (Escherichia coli) (UniProt P0AES6+P0AES4)
- EXPERIMENTAL PROTOCOL: Minimum inhibitory concentration against Escherichia coli DNA-gyrase in supercoiling assay
- Type: functional

COMPOUND	MIC [µg/mL]
CC1CN(c2cc3c(cc2F)c(=O)c(C(=O)O)cn3C2CC2)CCN1 (centres undefined)	0.5
CCn1cc(C(=O)O)c(=O)c2cc(F)c(N3CCNC(C)C3)cc21 (centres undefined)	2.5
CCNCC1CCN(c2c(F)cc3c(=O)c(C(=O)O)cn(C4CC4)c3c2F)C1 (centres undefined) [PD-117558]	0.25
CCn1cc(C(=O)O)c(=O)c2c(O)c(F)c(N3CC(C)NC(C)C3)c(F)c21 (centres undefined)	5
CCn1cc(C(=O)O)c(=O)c2c(N)c(F)c(N3CC(C)NC(C)C3)c(F)c21 (centres undefined)	7.5
CCn1cc(C(=O)O)c(=O)c2cc(F)c(N3CCNC(C)C3)c(F)c21 (centres undefined) [LOMEFLOXACIN]	2.5
CCNCC1CCN(c2c(F)c(N)c3c(=O)c(C(=O)O)cn(CC)c3c2F)C1 (centres undefined)	3.8
CCn1cc(C(=O)O)c(=O)c2c(N)c(F)c(N3CC(C)NC(C)C3)c(Cl)c21 (centres undefined)	7.5
CCn1cc(C(=O)O)c(=O)c2cc(F)c(N3CC(C)NC(C)C3)c(F)c21 (centres undefined)	3.8
CCNCC1CCN(c2c(F)cc3c(=O)c(C(=O)O)cn(CC)c3c2F)C1 (centres undefined) [MERAFLOXACIN]	2.5
CCn1cc(C(=O)O)c(=O)c2cc(F)c(N3CCC(N)C3)c(F)c21 (centres undefined)	2.5
CCn1cc(C(=O)O)c(=O)c2c(N)c(F)c(N3CCC(N)C3)c(F)c21 (centres undefined)	2.5
CCn1cc(C(=O)O)c(=O)c2c(O)c(F)c(N3CCC(N)C3)c(F)c21 (centres undefined)	2.5
CCNCC1CCN(c2c(F)c(N)c3c(=O)c(C(=O)O)cn(C4CC4)c3c2Cl)C1 (centres undefined)	1
